Documented IC50 across a set of molecules
# Tested on: KB
# ASSAY NAME: Cytotoxicity against human KB cells after 72 hrs by neutral red assay
# Assay type: functional, cell-based

- SMILES STRING: "COc1c2c(cc3c1[C@H]1C(=O)OC[C@H]1[C@H](C(=O)NC1CCCCCC1)[C@@H]3c1ccc3c(c1)OCO3)OCO2"
  IC50 / mg/L: 26
- SMILES STRING: "COc1c2c(cc3c1[C@@H](C#N)[C@H]1COC(=O)[C@@H]1[C@@H]3c1ccc3c(c1)OCO3)OCO2"
  IC50 / mg/L: 1.2
- SMILES STRING: "COc1c2c(cc3c1[C@H]1C(=O)OC[C@H]1[C@H](C(=O)N1CCCCC1)[C@@H]3c1ccc3c(c1)OCO3)OCO2"
  IC50 / mg/L: 42
